assay: 384-well plate pilot, post-Golgi transport modulator project, inhibition of yeast transport mutant growth (AID 636); conditions: absorbance 615 nm, about 18 h, hits give high values
Listed compounds paired with reported inhibition
Report only the number, with the unit % understood.

inhibition in this record for CCN1CCN(c2nc(-c3cccnc3)nc3ccccc23)CC1 : -3.16

inhibition in this record for CC(C)(C)c1ccc(C(=O)N2CCC(C(=O)NCc3ccncc3)CC2)cc1 : -3.2

inhibition in this record for Cc1ccc2c(c1)C(O)(CC(=O)c1ccc3c(c1)OCO3)C(=O)N2 (centres undefined) : -4.11

inhibition in this record for c1ccc(-c2ccc(-c3ccccn3)nn2)nc1 : -6.27

inhibition in this record for Cc1ccc(NC(=O)COc2nc(C)cs2)cc1 : -3.64

inhibition in this record for COc1ccccc1C(=O)NCC(=O)Nc1ccccc1 : -8.08

inhibition in this record for Cc1noc(C)c1CSc1nc2ccccc2s1 : -1.43

inhibition in this record for CC(CCc1ccccc1)NC(=O)C1CCN(S(=O)(=O)c2cnc[nH]2)CC1 (centres undefined) : -9.73

inhibition in this record for Cc1nn(Cc2ccccc2)c2c1C(c1ccncc1)C(C#N)=C(N)O2 (centres undefined) : -4.8

inhibition in this record for CCC(=O)Nc1ccc(NC(=O)CSc2nnnn2C(C)C)cc1 : -3.82

###

assay: growth inhibitors of H69AR lung tumor, primary screen, human, duplicate replicates (AID 580); conditions: H69AR lung tumor cells viability, ATP luminescence, 72 h; at 10 µM; hits give low values;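 further: 100% = mean luminescence of untreated wells and 0% = no signal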
Listed compounds paired with reported viability
Report only the number, with the unit % understood.

[[record]]
molecular_string = "Brc1ccc2[nH]ncc2c1"
experimental_readout = "viability"
endpoint_value = 91.6

[[record]]
molecular_string = "CCCCOC(=O)c1cccc(NC(=O)CC)c1"
experimental_readout = "viability"
endpoint_value = 89.6

[[record]]
molecular_string = "O=C(CSc1nc2ccccc2c(=O)n1Cc1ccco1)NCc1ccccc1"
experimental_readout = "viability"
endpoint_value = 89.4

[[record]]
molecular_string = "CN(CCCC(=O)Nc1ccncc1)S(=O)(=O)c1ccc(Cl)cc1"
experimental_readout = "viability"
endpoint_value = 89

[[record]]
molecular_string = "COC(=O)c1ccccc1OCC(=O)NC1CCCCC1"
experimental_readout = "viability"
endpoint_value = 90.2


viability in this record for CC1CCN(c2oc(-c3cccc4ccccc34)nc2C#N)CC1 : 91.7

viability in this record for Fc1ccccc1Cn1nnc2c(-n3ccnc3)ncnc21 : 92.3

###

Listed compounds paired with reported differential viability (reversal)
experiment: reversal of MRP1-mediated doxorubicin resistance, pilot screen, H69AR cells, doxorubicin co-treatment (AID 601); conditions: H69AR cells + 2 uM doxorubicin, CellTiter-Glo, 72 h; at 10 µM; hits give high values
Report only the number, with the unit % understood.

[[record]]
compound = "COC(=O)Nc1nc2ccc(C(=O)c3ccccc3)cc2[nH]1"
unit_annotation = "%"
endpoint_value = -47.3


differential viability (reversal) in this record for Cc1ccc(-c2cn3cccnc3n2)cc1NC(=O)c1ccc(Br)o1 : 8.45

differential viability (reversal) in this record for Cc1nn(-c2ccccc2)c2c1C(O)n1c(nc3ccccc31)S2 (stereo not drawn) : -8.14

###

assay: SK-BR-3 cell growth inhibitors, pilot screen, 24 h, human (AID 572); conditions: SK-BR-3 viability, CellTiter-Glo luminescence, at 10 µM, hits give low values;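 further: compound exposure lasted between 18 and 24 h rather than exactly 24 h; 100% = carrier-treated control wells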
experimental readout: viability (%)
Report only the number, with the unit % understood.

Answered cases to consult:
[[record]]
compound = "CCn1cc(C(=O)NCCN(C)CCc2ccccc2)c(=O)c2cc(S(=O)(=O)N(C)C)ccc21"
experimental_readout = "viability"
endpoint_value = 90

[[record]]
compound = "CCOC(=O)c1ccc(N(CC(=O)NC2CCCC2)C(=O)CNC(=O)c2ccco2)cc1"
experimental_readout = "viability"
endpoint_value = 90


viability in this record for O=C(Nc1sc2c(c1C(=O)NCc1ccco1)CCCC2)c1ccc2c(c1)OCO2 : 89.5

viability in this record for Cc1cc(C(=O)Nc2sc3c(c2C#N)CCCCC3)cs1 : 91.5

viability in this record for CC(C)Cn1c(=O)c(C(=O)NCc2ccccn2)c(O)c2ccccc21 : 110

viability in this record for CCn1c(CNc2ccc(C)cc2)nnc1SCC(=O)NCc1ccccc1 : 89

viability in this record for O=C(CSc1nnc(-c2ccco2)n1CC1CCCO1)N1CCCCC1 (centres undefined) : 94

viability in this record for Fc1cccc(Nc2cc(-n3cccn3)ncn2)c1 : 95

viability in this record for O=C(O)CC1Sc2nc3ccccc3n2C1=O (centres undefined) : 105

viability in this record for COc1cc(C2c3c(n[nH]c3C)C(=O)N2c2ccc(C)cc2)ccc1O (centres undefined) : 113

###

Listed compounds paired with reported viability
assay: HUVEC growth inhibition – cell-based, human, primary screen (AID 575); settings: HUVEC proliferation, CellTiter-Glo luminescence, 72 h; at 10 µM; hits give low values;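 further: 100% = median of untreated cell wells with 0.1% DMSO on each plate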
Report only the number, with the unit % understood.

[[record]]
compound = "O=C(NCC1CCCO1)c1ccc(C(=O)NCC2CCCO2)cc1 (configuration not stated)"
endpoint_value = 108

[[record]]
compound = "CC(=O)Nc1ccc(NC(=O)c2ccccc2N(C)S(C)(=O)=O)cc1"
endpoint_value = 101

[[record]]
compound = "COc1cc(CN2CCC(C(=O)NC3CCCC3)CC2)ccc1O"
endpoint_value = 109

[[record]]
compound = "CCOC(=O)c1ccc(NC(=O)CSc2nnc(COc3ccccc3)n2C)cc1"
endpoint_value = 85.3

[[record]]
compound = "CCOC(=O)c1c(C)oc2ccc(NS(=O)(=O)c3ccc4c5c(cccc35)C(=O)N4)cc12"
endpoint_value = 76.9


viability in this record for COCCNC(=O)c1ccc(CS(=O)(=O)c2ccc(OC)cc2)o1 : 87

viability in this record for NC(=O)C1(N2CCCCC2)CCN(C(=O)Nc2ccccc2C(F)(F)F)CC1 : 105

viability in this record for O=C(c1cccs1)N(Cc1ccco1)Cc1cc2ccccc2[nH]c1=O : 110

viability in this record for Cc1cc(NC(=O)COc2ncnc3sc(C)c(C)c23)no1 : 97.6

viability in this record for Cc1ccc2[nH]c(=O)c(CN(CCCO)S(=O)(=O)c3c(C)ccc4nsnc34)cc2c1 : 95.1

viability in this record for Cc1ccc(S(=O)(=O)N2CCCC2C(=O)OCc2ccco2)cc1 (configuration not stated) : 96

viability in this record for CCn1c(CSc2nnc(-c3cccnc3)n2-c2ccccc2C)nc2cc(C(=O)O)ccc21 : 94

viability in this record for COCCSc1nnc(NC(=O)CSCc2ccccc2)s1 : 103

###

experiment: SK-BR-3 cell growth inhibitors, pilot screen, 24 h, human (AID 572); conditions: SK-BR-3 viability, CellTiter-Glo luminescence, at 10 µM, hits give low values;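 further: compound exposure lasted between 18 and 24 h rather than exactly 24 h; 100% = carrier-treated control wells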
experimental readout: viability (%)
Report only the number, with the unit % understood.

[[record]]
compound = "COC(=O)C1=C(C)NC(C)=C(C(=O)OC)C1C(=O)OC1CCCCC1=O (configuration not stated)"
experimental_readout = "viability"
endpoint_value = 89

[[record]]
compound = "CC1(C)NC(=O)N(CC(O)COc2ccc(-c3ccccc3)cc2)C1=O (configuration not stated)"
experimental_readout = "viability"
endpoint_value = 101

[[record]]
compound = "O=C1CSC(c2cn(-c3ccccc3)nc2-c2cccs2)N1CC1CCCO1 (configuration not stated)"
experimental_readout = "viability"
endpoint_value = 102

[[record]]
compound = "COc1ccc(-n2cc(-c3ccccc3)c3c(N4CCN(CCO)CC4)ncnc32)cc1"
experimental_readout = "viability"
endpoint_value = 100

[[record]]
compound = "CCn1c(=O)c2cc(S(=O)(=O)NCc3ccccc3)ccc2n(CC)c1=O"
experimental_readout = "viability"
endpoint_value = 93

[[record]]
compound = "Cn1nc(-c2ccc(N3CCCCC3)c(NC(=O)c3ccco3)c2)c2ccccc2c1=O"
experimental_readout = "viability"
endpoint_value = 107


// next entry
viability in this record for CCOc1ccc(NC(=O)CN2CCN(CC(=O)c3ccc(OCC)cc3)CC2)cc1 : 95

###

experiment: SK-BR-3 cell growth inhibitors, pilot screen, 24 h, human (AID 572); settings: SK-BR-3 viability, CellTiter-Glo luminescence, at 10 µM, hits give low values;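 further: compound exposure lasted between 18 and 24 h rather than exactly 24 h; 100% = carrier-treated control wells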
Output TRUE for records whose viability is lower than 90%, FALSE for records at or above 90%.

INPUT: hey, is viability for COC(=O)c1cc(Br)c(=O)n(CCc2ccc(F)cc2)c1 lower than 90% or not?
OUTPUT: TRUE

INPUT: hey, is viability for O=C(NCC12CC3CC(C1)CC(CNC(=O)N1CCCC1)(C3)C2)N1CCCC1 lower than 90% or not?
OUTPUT: TRUE

###

Listed compounds paired with reported viability
assay: SK-BR-3 cell growth inhibitors, pilot screen, 24 h, human (AID 572); conditions: SK-BR-3 viability, CellTiter-Glo luminescence, at 10 µM, hits give low values;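 further: compound exposure lasted between 18 and 24 h rather than exactly 24 h; 100% = carrier-treated control wells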
Report only the number, with the unit % understood.

[[record]]
molecular_string = "c1ccc(OCc2nc(-c3ccccc3)no2)cc1"
endpoint_value = 98

[[record]]
molecular_string = "Cc1cc(S(=O)(=O)N(Cc2ccccc2)Cc2ccc(N(C)C)cc2)ccc1-n1cnnn1"
endpoint_value = 81

[[record]]
molecular_string = "CCCCNC(=O)NS(=O)(=O)c1ccc(C)cc1"
endpoint_value = 97


viability in this record for CCOc1ccc2[nH]cc(C(=O)N3CCN(CC)CC3)c(=O)c2c1 : 98

viability in this record for CN(C(=O)Cn1c(=O)n(CCCCC(=O)NC2CCCC2)c(=O)c2ccccc21)C1CCCCC1 : 106

These entries and their values trace back to PubChem BioAssay.
